meta.source: the nanobody polyreactivity screen of Harvey et al. (2022)

test: yeast display, Sf9 membrane polyspecificity reagent, FACS + sequencing; frameworks hold sequencing errors

[
  {
    "chain.sequence": "QVQLVESGGGLVQAGGSLRLSCAASGRIFDQYAMGWYRQAPGKERELVAVISSSGTTNYADSVKGRFTISRDNAKNTVYLQMNSLKPEDTAVYYCAARRQSWFVAAHMDYWGQGTQVTVSS",
    "polyreactivity (PSR sort gate)": "low polyreactivity"
  },
  {
    "chain.sequence": "QVQLVESGGGLVQAGGSLRLSCAASGFILYSYAMGWYRQAPGKERELVADITGTGGRTYYADSVKGRFTISRDNAKNTVYLQMNSLKPEDTAVYYCNKGPFFVFRTTRYYEYDYWGQGTQVTVSS",
    "polyreactivity (PSR sort gate)": "low polyreactivity"
  }
]

###

test: yeast display, Sf9 membrane polyspecificity reagent, FACS + sequencing; frameworks hold sequencing errors
property.label: polyreactivity (PSR sort gate)

Sample answers from the record:
[
  {
    "chain.sequence": "QVQLVESGGGLVLAGGILRLSCAASGSTFYAYAMGWYRQAPGKERELVAAIDSGGSTYYADSVKGRFTISRDNAKNTVYLQMNSLKPEDTAVYYCAVRHRYTRAYWGRDYWGQGSQVTVSS",
    "polyreactivity (PSR sort gate)": "low polyreactivity"
  },
  {
    "chain.sequence": "QVQLVESGGGLVQAGGSLRLSCAASGRTFYHYTMGWYTQAPGKERELVAAISSGGSTNYADSVKGRFTISRDNAKNTVYLQMNSLKPEDTAVYYCAARYRGWSGGYDYWGQGTQETVSS",
    "polyreactivity (PSR sort gate)": "high polyreactivity"
  },
  {
    "chain.sequence": "QVQLVQSGGGLVQAGGSLRLSCAASGSIFLYYVMGWYRQAPGQERELVAAITWDGGSTYYADSVKGRFTISRDNAKNTVYLQMNSLNPEDTAVYFCAARVASKYLVYRKRPSRYDYWGQGTQLTVSS",
    "polyreactivity (PSR sort gate)": "low polyreactivity"
  },
  {
    "chain.sequence": "QVQLVESGGGLVQAGGSLRLICAASGRTFRYNAMGWYRQAPGKERELVASITSGGSTNYADSVKGRFTISRDHAKNTVYLQMNSLKPEDTAVYYCAKDHYYRYEDGDYWGQGTQVTVSS",
    "polyreactivity (PSR sort gate)": "low polyreactivity"
  },
  {
    "chain.sequence": "QDQLVESGGGLVQAGGSLRLSCAASGIIIVAYAMGWYRQAPGKERELVAAITVSGARTYYADSVKGRFTISRDNAKITVYFQMNSLKPEDTAVYYCAARYAGGGVLGHGYWGQGTQVTVSS",
    "polyreactivity (PSR sort gate)": "high polyreactivity"
  },
  {
    "chain.sequence": "QVQHVESCGGLVQAGGSLRLSCAASGRIINSNDMGWYRQAPGKERELVAAISKRGGSTFYADSVKGRFTISRDNAKNTVYLQRNSLKPEDTAVYYCAADKWTYYYAVDSWGQGTQVTVSS",
    "polyreactivity (PSR sort gate)": "high polyreactivity"
  }
]

Report polyreactivity (PSR sort gate) for QVQLVESGGGLVQAGGSLRLSCAASGFIFNKYAMGWYRQAPGKERELVATIRRDGSTNYADSVKGRFTISRDNAKNTVYLQMNSLIPEDTAVYYCAVRPYYWSRDYYWGQGTQVTVSS
high polyreactivity

Report polyreactivity (PSR sort gate) for QVQLVESGGGLVQAGGSLRLSCAASGFTFSWYAMGWYRQAPGKETELVAAITRSGGSTNYADSVKGRFTISRDNAKNTVYLQMNSLKPEDTAVYYCNAAGYRRSTWWYDYWGQGTQVTVSS
high polyreactivity

Report polyreactivity (PSR sort gate) for QVQLVESGGGLVQAGGRLRLSCAASGSIFTYNAMGWYIQAPGKERELVAAISASGGRTYYADSVKGRFTISRDNAKNTVYLQMNILKPEDTAVYYCAARIRVSGLRRFDYWGQGTQVTVSS
high polyreactivity

Report polyreactivity (PSR sort gate) for QVQLVESGGGLVQAGGSLRLSCAASGSIFLAYDMGWYRQAPGKERELVAAISYTGGSTNYADSVKGRFTISRDNAKNTVYLQMNSLKPEDTAVYYCNTAGDLWIDYGYWGQGTQVTVSS
low polyreactivity

Report polyreactivity (PSR sort gate) for QVQLVESGGGLVQAGGSLRLSCAASRFLFWSYAMGWYRQAPGKERELVAAISWRGGSTYYADSVKGRFSISRDTAKNTVYLQMNSLKPEDTAVYYCAAERYNGYDYWGQGTQVTVSS
high polyreactivity

Report polyreactivity (PSR sort gate) for QVQLVESGGGLVQAGGSLRLSCAASGSIFHDYAMGWYRQEHGKERELVAVISTSGGSTYYADSVKGRFTISRDNAKNTDYLQMNSLKPEYTAVYYCNARTVGPYPSQAALEYDSGGQGTQVTVSS
low polyreactivity

Report polyreactivity (PSR sort gate) for QVQLVESGGGLVQAGGSLRLSCAASGGTFSFNAMGWSRQAPGKEREVVAAITSDDGTNDADSVKGRFTISRDNAKNTVYLQMNSLKPEDTAVDYCAAESRFEGWGQGTQVTVSS
low polyreactivity

Report polyreactivity (PSR sort gate) for QVQLVESGGGLVQAGGSLRLSCDASGSILWLNAMGWYRQAPGKERELVADITRGGSTYYADSVKGRFTISRDNAKNTVYLQMNSLKPEDTAVYYCAARLYGGYDWGQGTQVTVSS
high polyreactivity

Report polyreactivity (PSR sort gate) for QVQLVESGGGLVQAGGSLRLSCAASGITFYGNAMGWYRQAPGKERELVAGISSGGSTSYADSVKGRFTISRDNAKNTVYLQMNSLKPEDTAVYYCAKRWYYGTRYGTSYIRDYWGQGTQVTVSS
high polyreactivity

Report polyreactivity (PSR sort gate) for QDQLVEAGGGLVQAGGSLRLSCAASRRTFWKYARGWYIQAPGKERELVAAISSSGGNTYYADSVKGRFTISRDNAKNTVYLQMNRLKPEDTAVYYCAAPLPRGAYFYWGQGTQVTVSS
high polyreactivity

Report polyreactivity (PSR sort gate) for QVQLVESGGGLVQAGGSLRLSCAASGRIFVRNAMGWYRQAPRKERELVADITNGGSTNYADSVKGRFTISRDNGMNTVYLQMNSLKPEDTAVYYCAADTLGVYDGDYWGQGTQVTVSS
low polyreactivity

Report polyreactivity (PSR sort gate) for QVQLVESGGGLVQAGGSLRLSCAASGYIFVTNAMGWYRQAPGKERELVAAISYRGGSTSYADSVKGRFTISRDNAMNTVYLQMNSLKPEDTAVYYCNAVTFPLGYLRFYYWGQGTQVTVSS
low polyreactivity

Report polyreactivity (PSR sort gate) for QVQLVESGGAKVQAGGSLRLSCAASGRTFDYYVMGWNRQAPVKEREFVAAITWSGDSTYYADSVKGRFTISRENAKNTVYLQMNSLKPEDTAVYYCNADYYPTTFYAFVYMYDYWGQGTQVTVSS
low polyreactivity

Report polyreactivity (PSR sort gate) for QVQLVESGGGLVQAGGSLRLSCAASGSTFGGNAMGWYRQAPGKERELVASISDGGRTNYADSVKGRFTISRDNAKNTVYLQMNSLKPEDTAVYYCAADYAPVAFDYWGQGTQVTVSS
low polyreactivity

Report polyreactivity (PSR sort gate) for QLQLVESGGGLVQAGGSLRLSCAASGRTFRINTMGWYRPAPGKERELVATITGSGGSTYYADSVKGRFTISRDNAKNTVYLQMNSLKPEDTAVYYCAAVGDQNEYDYWGQGTQVTVSS
low polyreactivity

###

experiment: yeast display, Sf9 membrane polyspecificity reagent, FACS + sequencing; frameworks hold sequencing errors
property.label: polyreactivity (PSR sort gate)

Sample answers from the record:
[
  {
    "chain.sequence": "QVQLVDSCGGLVQAGGSLRLSCYDSGSTFPYKAMGWYRQAPGKERELVAAITSGASTNYADSVKGRFTISRDNAKNTVYLQMNSLTPEDTAVYYCAAQSYGKRIWSPRFQLNYWGQGTQVTVSS",
    "property.label": "polyreactivity (PSR sort gate)",
    "result": "low polyreactivity"
  },
  {
    "chain.sequence": "QVQLVESGGGLVQAGGSLRLSCAASGRIFYYNTMGWYRQAPGKERELVAAITTNGGSTYYADSVKGRFTISRDNAKNTVYLQMNSLKPEDTAVYYCNRDRYPYYYAYNYWGQGTQVTVSS",
    "property.label": "polyreactivity (PSR sort gate)",
    "result": "low polyreactivity"
  },
  {
    "chain.sequence": "QVQLVESGGGLVQAGGRLRLSCAASGSIFSYYAMGWYRQAPGKERELVAAITANGGSTYYADSVKGRFTISRDNAKNTVYLQMNSLKPADTAVYYCAADYYWGYDCGQGTQVTVSS",
    "property.label": "polyreactivity (PSR sort gate)",
    "result": "low polyreactivity"
  },
  {
    "chain.sequence": "QVQLVESGGGLVQAGGSLRLSCAASGSIFFGNAMGWYRQAPGKERELVAAISTTGGSTYYADSVKGRFTISRDNAKNTVYLQMISLKPEDTAVYYCNADRATWWEQWWYDYWGQGTQVTVSS",
    "property.label": "polyreactivity (PSR sort gate)",
    "result": "low polyreactivity"
  },
  {
    "chain.sequence": "QVQLVESGGGLVQAGGSLRLSCAASGRNFDKYTMGWYRQAPGKERELVAAISKSGSGTFYADSVKGRFTISRDNAKNTVYLQMNRLKPEDTAVYYCARVYTVGTGRSWRLDYWGQGTQVTVSS",
    "property.label": "polyreactivity (PSR sort gate)",
    "result": "high polyreactivity"
  }
]

Report polyreactivity (PSR sort gate) for QVQLVESGGGLVQAGGSLRLSCAASGRTFYGYAMGWYRQAPGKERELVAVITRDGSTNYADSVKGRFTISRDNAKNTVYLQMNSLKPEDTAVYDCAAERLAYRVRWRYNQEDYWGQGTQVTVSS
high polyreactivity

Report polyreactivity (PSR sort gate) for QVQLVESGGGLVQAGGSLRLSCAASGFTFRANGMGWYRQATGKERELVATITSGGTTNYADSVKGRFTISRDNAKNTVYLQMNSLKPEDTAVYYCAKRFGPAYFRLYDYWGQGTQVTVSS
low polyreactivity

Report polyreactivity (PSR sort gate) for QVQLVESGGGLVQAGGSLRLSCAASASTFPVNAMGWYRQAPGKERELVAAIRSSTGRTYYADSVKGRFTISRDNAKNTVYLQMNSLKPEDTAVYYCAAYYLGQYEYDYWGQGTQVTVSS
low polyreactivity

Report polyreactivity (PSR sort gate) for QVQLVESGGGLVQAGGSLRLSCAASGSTSTYNAMGWYRQAPGKERELVAAITESGGSTYYADSVKGRFTISRDNAKNTVYLQMNSLKPEDTAVYYCAADLTYTYEFWGQGTQVTVSS
low polyreactivity

Report polyreactivity (PSR sort gate) for QVQLVESGGGLVQAGGSLRLSCAPSGYNFSKYAMGWYRQAPGKERELVAAITSGGGSTYYADSVKGRFTISRDNAKNTVYLQMNSLKPEDTAVYYCNAACRRIVGQTYDYWGQGTQVTVSS
high polyreactivity

Report polyreactivity (PSR sort gate) for QVQLVESGGGLVQAGGSLRLSCAASGSTFGTYAMGWSRQAPGKERELVAAITSGGSTDYADSVKGRFTISRDNAKNTVYLQMNSLKPEDTAVYYCNATWELLSYYYLFWGYDYWGQGTQVTVSS
low polyreactivity
